Origin of measurements: BigSolDB 2.1

Conditions: in n-propanol, 303.15 K
readout_label: solubility (mole fraction)
Give bare numbers.

Reported solubility (mole fraction) of `Nc1cncc(Cl)n1` : 0.0127

###

Conditions: in acetone, 283.15 K
readout_label: solubility (mole fraction)
Give bare numbers.

Reported solubility (mole fraction) of `Nc1cncc(Cl)n1` : 0.0141

###

Details: in propylene glycol, 318.15 K
readout_label: solubility (mole fraction)
Answers are plain numbers.

Reported solubility (mole fraction) of `Nc1cncc(Cl)n1` : 0.00379

###

Details: in ethanol, 323.15 K
readout_label: solubility (mole fraction)
One number for each entry.

Reported solubility (mole fraction) of `Nc1cncc(Cl)n1` : 0.00756

###

Conditions: in ethanol, 313.15 K
readout_label: solubility (mole fraction)
Give bare numbers.

Reported solubility (mole fraction) of `Nc1cncc(Cl)n1` : 0.0053

###

Conditions: in n-propanol, 278.15 K
readout_label: solubility (mole fraction)
One number for each entry.

Reported solubility (mole fraction) of `Nc1cncc(Cl)n1` : 0.00494

###

Conditions: in propylene glycol, 313.15 K
readout_label: solubility (mole fraction)

Reported solubility (mole fraction) of `Nc1cncc(Cl)n1` : 0.00327

###

Details: in acetone, 288.15 K
readout_label: solubility (mole fraction)

Reported solubility (mole fraction) of `Nc1cncc(Cl)n1` : 0.0167

###

Details: in propylene glycol, 278.15 K
readout_label: solubility (mole fraction)
Answers are plain numbers.

Reported solubility (mole fraction) of `Nc1cncc(Cl)n1` : 0.000917

###

Settings: in isopropanol, 313.15 K
readout_label: solubility (mole fraction)
Give bare numbers.

Reported solubility (mole fraction) of `Nc1cncc(Cl)n1` : 0.0146

###

Settings: in water, 323.15 K
readout_label: solubility (mole fraction)
Numbers only.

Reported solubility (mole fraction) of `Nc1cncc(Cl)n1` : 0.000168

###

Conditions: in acetone, 278.15 K
readout_label: solubility (mole fraction)
One number for each entry.

Reported solubility (mole fraction) of `Nc1cncc(Cl)n1` : 0.0117

###

Details: in ethanol, 298.15 K
readout_label: solubility (mole fraction)
Numbers only.

Reported solubility (mole fraction) of `Nc1cncc(Cl)n1` : 0.00323

###

Settings: in DMF, 313.15 K
readout_label: solubility (mole fraction)
Answers are plain numbers.

Reported solubility (mole fraction) of `Nc1cncc(Cl)n1` : 0.0322

###

Details: in isopropanol, 278.15 K
readout_label: solubility (mole fraction)
One number for each entry.

Reported solubility (mole fraction) of `Nc1cncc(Cl)n1` : 0.00421

###

Conditions: in acetone, 313.15 K
readout_label: solubility (mole fraction)
Answers are plain numbers.

Reported solubility (mole fraction) of `Nc1cncc(Cl)n1` : 0.0371

###

Settings: in propylene glycol, 308.15 K
readout_label: solubility (mole fraction)
Answers are plain numbers.

Reported solubility (mole fraction) of `Nc1cncc(Cl)n1` : 0.00281

###

Conditions: in ethylene glycol, 288.15 K
readout_label: solubility (mole fraction)
One number for each entry.

Reported solubility (mole fraction) of `Nc1cncc(Cl)n1` : 0.00113

###

Conditions: in methanol, 298.15 K
readout_label: solubility (mole fraction)
One number for each entry.

Reported solubility (mole fraction) of `Nc1cncc(Cl)n1` : 0.00244

###

Conditions: in acetonitrile, 283.15 K
readout_label: solubility (mole fraction)
Give bare numbers.

Reported solubility (mole fraction) of `Nc1cncc(Cl)n1` : 0.0119

###

Details: in DMF, 298.15 K
readout_label: solubility (mole fraction)
Numbers only.

Reported solubility (mole fraction) of `Nc1cncc(Cl)n1` : 0.0194

###

Settings: in DMF, 288.15 K
readout_label: solubility (mole fraction)
Give bare numbers.

Reported solubility (mole fraction) of `Nc1cncc(Cl)n1` : 0.0135

###

Conditions: in DMF, 308.15 K
readout_label: solubility (mole fraction)

Reported solubility (mole fraction) of `Nc1cncc(Cl)n1` : 0.0271

###

Settings: in methanol, 293.15 K
readout_label: solubility (mole fraction)
One number for each entry.

Reported solubility (mole fraction) of `Nc1cncc(Cl)n1` : 0.00196
